Biological target: HIV-1 YU-2 gp120 (HIV-1 (YU-2), UniProt P35961)
Experiment: SPR
VALUE_KIND: IC50

[[record]]
binder = "Fab m18 K31R (LCDR1) (Fab, V domains shown) VH: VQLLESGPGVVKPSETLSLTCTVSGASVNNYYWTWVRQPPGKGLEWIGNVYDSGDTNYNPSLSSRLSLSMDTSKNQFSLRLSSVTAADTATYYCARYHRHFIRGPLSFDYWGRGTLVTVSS VL: LQMTQSPSFLSASVGDRVSITCRASQDIQRFLAWYQLTPGDAPKLLMYSASTLQSGVPSRFSGSGSGTEFTLTISGLQPEDFATYYCQHLKRYPYTFGQGTKLEIS"
test_value = "> 1000 nM"

[[record]]
binder = "Fab m18 S65A (HCDR2) (Fab, V domains shown) VH: VQLLESGPGVVKPSETLSLTCTVSGASVNNYYWTWVRQPPGKGLEWIGNVYDSGDTNYNPSLSARLSLSMDTSKNQFSLRLSSVTAADTATYYCARYHRHFIRGPLSFDYWGRGTLVTVSS VL: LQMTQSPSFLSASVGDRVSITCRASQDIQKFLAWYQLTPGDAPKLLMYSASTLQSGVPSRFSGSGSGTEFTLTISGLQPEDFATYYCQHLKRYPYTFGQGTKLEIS"
test_value = "> 1000 nM"

[[record]]
binder = "Fab m18 N30A (HCDR1) (Fab, V domains shown) VH: VQLLESGPGVVKPSETLSLTCTVSGASVANYYWTWVRQPPGKGLEWIGNVYDSGDTNYNPSLSSRLSLSMDTSKNQFSLRLSSVTAADTATYYCARYHRHFIRGPLSFDYWGRGTLVTVSS VL: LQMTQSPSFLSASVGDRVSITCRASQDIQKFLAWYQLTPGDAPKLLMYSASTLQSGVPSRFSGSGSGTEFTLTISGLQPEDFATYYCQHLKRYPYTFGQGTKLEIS"
test_value = "> 1000 nM"

